// provenance: the RNAGym collection of RNA variant scans (doi:10.1093/molbev/msab373)

B1: Azoarcus group I ribozyme (parent)
chain: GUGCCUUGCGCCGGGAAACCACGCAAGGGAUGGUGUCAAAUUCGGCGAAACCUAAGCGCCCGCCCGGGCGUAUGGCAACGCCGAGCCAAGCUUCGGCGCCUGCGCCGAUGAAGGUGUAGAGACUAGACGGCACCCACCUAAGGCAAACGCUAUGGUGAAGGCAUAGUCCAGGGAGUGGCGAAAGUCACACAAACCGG

Variants of: B1
METHOD NOTES: reverse-splicing fitness (ratio to wild type); higher = more active; in vitro selection; Mg2+ level not given
MEASUREMENT LABEL: reverse-splicing fitness
Number only, please.

Prompt: What value of measured reverse-splicing fitness is listed for C82A A111G A145G C169U U176G ?
Completion: 0.00606

Prompt: Similarly, C82G A111U A145G C150A C169A U176C ?
Completion: 0.0216

Prompt: Similarly, C82G A111U A120U A145U C150A U176G ?
Completion: 0.00291

Prompt: Similarly, C82U A120G A145G C150A U176A ?
Completion: 0.0092

Prompt: Similarly, C82A A120G C150A C169A U176G ?
Completion: 0.00586

Prompt: Similarly, C82U A120U A145C C150U ?
Completion: 0.0391

Prompt: Similarly, C82G A111U A120C A145G C150G U176A ?
Completion: 0.00813

Prompt: Similarly, C82A A111C A120G A145C C150U U176G ?
Completion: 0.00502

Prompt: Similarly, C82U A120C A145C C150A C169G U176C ?
Completion: 0.00772

Prompt: Similarly, C82A A111U A120U C150A C169A U176C ?
Completion: 0.00509

Prompt: Similarly, C82A A111G A120U C150U C169U ?
Completion: 0.0051

Prompt: Similarly, C82G A111U A120G A145U C150U C169U U176A ?
Completion: 0.0188

Prompt: Similarly, C82G A120G U176G ?
Completion: 0.00803

Prompt: Similarly, A111G A120G A145G C150U C169G U176G ?
Completion: 0.00563

Prompt: Similarly, C82G A111C A120C A145G C150G C169A U176G ?
Completion: 0.0086

Prompt: Similarly, C82G A111U A120G A145G C150A C169A ?
Completion: 0.0109

Prompt: Similarly, C82A A120C C169A U176G ?
Completion: 0.00458

Prompt: Similarly, C82U A120G A145C ?
Completion: 0.0203

Prompt: Similarly, C82A A145G C150U C169A U176A ?
Completion: 0.0161

Prompt: Similarly, A111G C150G C169G U176C ?
Completion: 0.00463

Prompt: Similarly, C82A A111U A145G C150U C169G U176C ?
Completion: 0.0194

Prompt: Similarly, A111C C150U ?
Completion: 0.709
